- assayTarget: human Y2 receptor (human) (UniProt P49146)
- Sequence (P49146 whole entry): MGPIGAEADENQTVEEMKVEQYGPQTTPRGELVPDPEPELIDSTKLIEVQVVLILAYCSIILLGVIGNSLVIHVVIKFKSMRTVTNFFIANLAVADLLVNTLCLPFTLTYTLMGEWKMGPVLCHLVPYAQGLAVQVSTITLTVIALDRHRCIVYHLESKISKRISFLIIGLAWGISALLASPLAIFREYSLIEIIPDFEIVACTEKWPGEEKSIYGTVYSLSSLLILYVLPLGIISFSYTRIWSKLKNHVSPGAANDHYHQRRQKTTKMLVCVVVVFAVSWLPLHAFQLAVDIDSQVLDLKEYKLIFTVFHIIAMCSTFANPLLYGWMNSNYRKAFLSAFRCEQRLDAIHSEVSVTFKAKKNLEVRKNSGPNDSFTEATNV
- testDetails: cell-based or functional assay
Starred links: 1 amine or outer side, 2 acyl side, 3 side chain; linkers in the order of their positions; H or OH if unused. Non-standard residues stand in square brackets, D forms with d. *: point of attachment. 4Pal = N[C@@H](Cc1ccncc1)C(=O)O; dHyp = O=C(O)[C@H]1C[C@H](O)CN1; Cha = N[C@@H](CC1CCCCC1)C(=O)O; Isonicotinoyl = O=C(c1ccncc1)*; Suc = O=C(CCC(=O)[*:2])[*:1]; Iva = CC[C@](C)(N)C(=O)O; Nle = CCCC[C@H](N)C(=O)O; Aib = CC(C)(N)C(=O)O
GBA EC50 Ratio ([35S]GTPγS binding) (EC50 compound/EC50 PYY(3-36)) by entry:
Just the number, please.

Worked cases, answers included:
binder | valueMeasured
Ac-E[dHyp]RH[Cha][Cha]NK[Aib]TRQR[Cha]-NH2 (SMILES CC(=O)N[C@@H](CCC(=O)O)C(=O)N1C[C@@H](O)C[C@@H]1C(=O)N[C@@H](CCCNC(=N)N)C(=O)N[C@@H](Cc1c[nH]cn1)C(=O)N[C@@H](CC1CCCCC1)C(=O)N[C@@H](CC1CCCCC1)C(=O)N[C@@H](CC(N)=O)C(=O)N[C@@H](CCCCN)C(=O)NC(C)(C)C(=O)N[C@H](C(=O)N[C@@H](CCCNC(=N)N)C(=O)N[C@@H](CCC(N)=O)C(=O)N[C@@H](CCCNC(=N)N)C(=O)N[C@@H](CC1CCCCC1)C(N)=O)[C@@H](C)O) [Ac-[Glu23, D-Hyp24, Cha27,28,36, Lys30, Aib31]-PYY(23-36)] | 1.3
Suc-Q[dP]R[4Pal][Cha][Aib]NK[Aib]TRQR[Cha]-NH2 (SMILES C[C@@H](O)[C@H](NC(=O)C(C)(C)NC(=O)[C@H](CCCCN)NC(=O)[C@H](CC(N)=O)NC(=O)C(C)(C)NC(=O)[C@H](CC1CCCCC1)NC(=O)[C@H](Cc1ccncc1)NC(=O)[C@H](CCCNC(=N)N)NC(=O)[C@H]1CCCN1C(=O)[C@H](CCC(N)=O)NC(=O)CCC(=O)O)C(=O)N[C@@H](CCCNC(=N)N)C(=O)N[C@@H](CCC(N)=O)C(=O)N[C@@H](CCCNC(=N)N)C(=O)N[C@@H](CC1CCCCC1)C(N)=O) [3-Carboxypropionyl-[Gln23, D-Pro24, Pya(4)26, Cha27,36, Aib28,31, Lys30]-PYY(23-36)] | 1.9
Isonicotinoyl-E[dP][Nle][4Pal][Cha][Aib]NK[Aib]TRQR[Cha]-NH2 (SMILES CCCC[C@H](NC(=O)[C@H]1CCCN1C(=O)[C@H](CCC(=O)O)NC(=O)c1ccncc1)C(=O)N[C@@H](Cc1ccncc1)C(=O)N[C@@H](CC1CCCCC1)C(=O)NC(C)(C)C(=O)N[C@@H](CC(N)=O)C(=O)N[C@@H](CCCCN)C(=O)NC(C)(C)C(=O)N[C@H](C(=O)N[C@@H](CCCNC(=N)N)C(=O)N[C@@H](CCC(N)=O)C(=O)N[C@@H](CCCNC(=N)N)C(=O)N[C@@H](CC1CCCCC1)C(N)=O)[C@@H](C)O) [4-Pyridinecarbonyl-[Glu23, D-Pro24, Nle25, Pya(4)26, Cha27,36, Aib28,31, Lys30]-PYY(23-36)] | 5.7

Could you now look at the following binder, please?
input: I am curious: what GBA EC50 Ratio ([35S]GTPγS binding) (EC50 compound/EC50 PYY(3-36)) value has been reported for Ac-S[dP]RH[Cha][Cha]N[Iva][Aib]TRQR[Cha]-NH2 (SMILES CC[C@](C)(NC(=O)[C@H](CC(N)=O)NC(=O)[C@H](CC1CCCCC1)NC(=O)[C@H](CC1CCCCC1)NC(=O)[C@H](Cc1c[nH]cn1)NC(=O)[C@H](CCCNC(=N)N)NC(=O)[C@H]1CCCN1C(=O)[C@H](CO)NC(C)=O)C(=O)NC(C)(C)C(=O)N[C@H](C(=O)N[C@@H](CCCNC(=N)N)C(=O)N[C@@H](CCC(N)=O)C(=O)N[C@@H](CCCNC(=N)N)C(=O)N[C@@H](CC1CCCCC1)C(N)=O)[C@@H](C)O) [Ac-[D-Pro24, Cha27,28,36, Iva30, Aib31]-PYY(23-36)] ?
output: 20
